Method: folding enthalpy; higher = less favourable; fluorescence melt of hairpins on a sequencing array, two-state fit
Condition label: sodium 0.088 M
# label = met if folding enthalpy >= -30 kcal/mol else not met

- Residue codes: "GATCAACCGATTGATC ((((((....))))))"
  Discrete label: "not met"
- Residue codes: "GGTGTTGGAAACAGCACC ((((.((....)).))))"
  Discrete label: "not met"
- Residue codes: "GTACCGGGAAACTGGTAC (((((.(....).)))))"
  Discrete label: "not met"
- Residue codes: "GCCATGGGAAACCATGAC (.(((((....))))).)"
  Discrete label: "met"
- Residue codes: "GCTACTGAAAAGTAGC ((((((....))))))"
  Discrete label: "not met"
- Residue codes: "CAGCGGAAACGCTG (((((....)))))"
  Discrete label: "met"
- Residue codes: "GATCATCTTCATGATC ((((((....))))))"
  Discrete label: "not met"
- Residue codes: "GGAGCCGAAAGGCCATCC ((((((....)))..)))"
  Discrete label: "met"
- Residue codes: "GCTTGGCGAAAGCTATGC ((.(.((....)).).))"
  Discrete label: "met"
- Residue codes: "GATCCACGTGTGGATC ((((((....))))))"
  Discrete label: "not met"
- Residue codes: "GCATATGGAAACGTATGC (((((.(....).)))))"
  Discrete label: "not met"
- Residue codes: "GTAGCGCGAAAGCGTTAC (((.(((....))).)))"
  Discrete label: "met"
- Residue codes: "GGTCGCGAAAGCGCACC ((((((....))).)))"
  Discrete label: "met"
- Residue codes: "GATCTACTCCTAGATC ((((((....))))))"
  Discrete label: "not met"
- Residue codes: "GATGCCGGAAACGGCGTC ((.((((....)))).))"
  Discrete label: "met"

----------
Method: folding enthalpy; higher = less favourable; fluorescence melt of hairpins on a sequencing array, two-state fit
Condition label: sodium 0.088 M
Listed sequences paired with reported folding enthalpy

- Residue codes: "GATCTACATCTAGATC ((((((....))))))"
  folding enthalpy: "-30.7 kcal/mol"
- Residue codes: "GATCTAGTTTAGATC ((((((...))))))"
  folding enthalpy: "-30.3 kcal/mol"
- Residue codes: "GGCCTTCGAAAGAACGCC (((.(((....))).)))"
  folding enthalpy: "-30.7 kcal/mol"
- Residue codes: "GATCAAACCGTTGATC ((((((....))))))"
  folding enthalpy: "-30.6 kcal/mol"
- Residue codes: "GCAATTCGAAAGAATGC (((.(((....))))))"
  folding enthalpy: "-29.3 kcal/mol"
- Residue codes: "GCACCGGGAAACCGACGC ((..(((....)))..))"
  folding enthalpy: "-24.1 kcal/mol"
- Residue codes: "GATCTTGTAAAGATC ((((((...))))))"
  folding enthalpy: "-43.5 kcal/mol"
- Residue codes: "CGCGGACCACTCCGCG ((((((....))))))"
  folding enthalpy: "-32.7 kcal/mol"

----------
Method: melting temperature; fluorescence melt of hairpins on a sequencing array, two-state fit, raised by 9.35 °C to match UV melts
Condition label: sodium 0.088 M
Measured endpoint: Tm (°C)

- Residue codes: "GTGGGAGGAAACTTCCAC ((((.((....)).))))"
  Output unit: "°C"
  Data value: 49.2
- Residue codes: "GAGCGCCGAAAGGCTCTC (((.(((....))).)))"
  Output unit: "°C"
  Data value: 50.7
- Residue codes: "GATCCTAGACAGGATC ((((((....))))))"
  Output unit: "°C"
  Data value: 50.4
- Residue codes: "GATCAATCCATTGATC ((((((....))))))"
  Output unit: "°C"
  Data value: 49.7
- Residue codes: "GATCAGAAGTCTGATC ((((((....))))))"
  Output unit: "°C"
  Data value: 49
- Residue codes: "GACCTGGGAAACTAGGTC (((((.(....).)))))"
  Output unit: "°C"
  Data value: 50.1
- Residue codes: "GGGCGACCGAAAGGTCCC (((..(((....))))))"
  Output unit: "°C"
  Data value: 49.8
- Residue codes: "GGGTCCGGAAACAGACCC (((((.(....).)))))"
  Output unit: "°C"
  Data value: 49.5
- Residue codes: "GCAGGGCGAAAGCCGAGC ((..(((....)))..))"
  Output unit: "°C"
  Data value: 50.1
- Residue codes: "GCGTGCTCGAAAGAGCGC (((..(((....))))))"
  Output unit: "°C"
  Data value: 51.5
- Residue codes: "GGCGTCCCGAAAGGGGCC (((..(((....))))))"
  Output unit: "°C"
  Data value: 50.4

----------
Method: melting temperature; fluorescence melt of hairpins on a sequencing array, two-state fit, raised by 9.35 °C to match UV melts
Condition label: sodium 0.088 M
Strictly below 50 °C in Tm: Condition met. Otherwise: Condition not met.

- Residue codes: "GGTGAGGGAAACCTTACC (((.(((....))).)))"
  Discrete label: "Condition met"
- Residue codes: "GATGGACCGAAAGGTATC (((..(((....))))))"
  Discrete label: "Condition met"
- Residue codes: "GCTTGCGCGAAAGCGAGC (((..(((....))))))"
  Discrete label: "Condition not met"
- Residue codes: "GCACGGGGAAACCCATGC (((.(((....))).)))"
  Discrete label: "Condition met"
- Residue codes: "AGTTTGAAAAAACT (((((....)))))"
  Discrete label: "Condition met"
- Residue codes: "GGCGCCGAAAGGCTAGCC ((((((....)))..)))"
  Discrete label: "Condition not met"
- Residue codes: "GCTATAGGAAACTGTAGC ((((.((....)).))))"
  Discrete label: "Condition met"
- Residue codes: "GGCAACCGAAAGGTGCC (((.(((....))))))"
  Discrete label: "Condition not met"
- Residue codes: "GGTCTCGAAAGAGTTACC ((((((....)))..)))"
  Discrete label: "Condition met"
- Residue codes: "GAGATCCGAAAGGACTC (((.(((....))))))"
  Discrete label: "Condition met"
- Residue codes: "GCCCACGAAAGTGGTGGC ((((((....)))..)))"
  Discrete label: "Condition not met"
- Residue codes: "GGAGAAGGAAACTCCTCC ((((.((....)).))))"
  Discrete label: "Condition met"
- Residue codes: "GAAGTTGGAAACAACTTC (((((((....)))))))"
  Discrete label: "Condition not met"
- Residue codes: "GTAATCGAAAGATGCTAC ((((((....)))..)))"
  Discrete label: "Condition met"
- Residue codes: "GCCTGCGAAAGCAATGGC ((((((....)))..)))"
  Discrete label: "Condition not met"
- Residue codes: "GCTTTGCGAAAGCTATGC ((.(.((....)).).))"
  Discrete label: "Condition met"
- Residue codes: "GATCCTAAAGAGGATC ((((((....))))))"
  Discrete label: "Condition met"
- Residue codes: "GTCCACACGAAAGTGGAC (((..(((....))))))"
  Discrete label: "Condition not met"
- Residue codes: "GATGCCGAAAGGCTAATC ((((((....)))..)))"
  Discrete label: "Condition met"
- Residue codes: "GATCCGTCAACGGATC ((((((....))))))"
  Discrete label: "Condition not met"
- Residue codes: "GAGTGCGAAAGCAAACTC ((((((....)))..)))"
  Discrete label: "Condition met"
- Residue codes: "GCATTCGAAAGAATTTGC ((((((....)))..)))"
  Discrete label: "Condition met"
- Residue codes: "GATCTCACAGGAGATC ((((((....))))))"
  Discrete label: "Condition not met"
- Residue codes: "GATCAATACTTGATC ((((((...))))))"
  Discrete label: "Condition met"
- Residue codes: "CGCACCGGAAACGGGCG (((.(((....))))))"
  Discrete label: "Condition not met"
- Residue codes: "GAGGTGGGAAACCGCCTC ((((.((....)).))))"
  Discrete label: "Condition not met"
- Residue codes: "GATCTATGCTAGATC ((((((...))))))"
  Discrete label: "Condition met"
- Residue codes: "GGTCAACCGAAAGGTACC (((..(((....))))))"
  Discrete label: "Condition met"
- Residue codes: "GCATAGCGAAAGCTGTGC (((.(((....))).)))"
  Discrete label: "Condition not met"
- Residue codes: "GAGAGTGGAAACGCTCTC (((((.(....).)))))"
  Discrete label: "Condition not met"
- Residue codes: "GATACCGGAAACGGTGTC ((.((((....)))).))"
  Discrete label: "Condition not met"
- Residue codes: "TGAAAGAAATTTCA (((((....)))))"
  Discrete label: "Condition met"
- Residue codes: "GCCAGCGAAAGCTCGGGC ((((((....)))..)))"
  Discrete label: "Condition not met"
- Residue codes: "GCAACATCGAAAGATTGC (((..(((....))))))"
  Discrete label: "Condition met"
- Residue codes: "GATCTATATGTAGATC ((((((....))))))"
  Discrete label: "Condition met"
- Residue codes: "GATGCCGGAAACGGCGTC ((.((((....)))).))"
  Discrete label: "Condition not met"
